# Experimental system: CCKB receptor (Cavia porcellus, UniProt H0VZC5)
# Construct: Male guinea pig brain tissues were prepared according to the modified method described by Saita et al; from tissue; host or cells: guinea pig cerebral cortex membranes
# Assay: 125I-CCK-8 receptor binding assay, CCKB (guinea pig cerebral cortex membranes)
Metric: pIC50
Answers are plain numbers, as −log10 of the molar value.

Recorded pIC50 (compound Cc1c(NC(=O)c2c[nH]c3ccccc23)c(=O)n(-c2ccccc2)n1C ): 4.82

###

Give measured pIC50 for each item. Keep answers brief.
# Experimental system: CCKB receptor (Cavia porcellus)
# Construct: Male guinea pig brain tissues were prepared according to the modified method described by Saita et al; from tissue; host or cells: guinea pig cerebral cortex membranes
# Sequence (H0VZC5 1-426): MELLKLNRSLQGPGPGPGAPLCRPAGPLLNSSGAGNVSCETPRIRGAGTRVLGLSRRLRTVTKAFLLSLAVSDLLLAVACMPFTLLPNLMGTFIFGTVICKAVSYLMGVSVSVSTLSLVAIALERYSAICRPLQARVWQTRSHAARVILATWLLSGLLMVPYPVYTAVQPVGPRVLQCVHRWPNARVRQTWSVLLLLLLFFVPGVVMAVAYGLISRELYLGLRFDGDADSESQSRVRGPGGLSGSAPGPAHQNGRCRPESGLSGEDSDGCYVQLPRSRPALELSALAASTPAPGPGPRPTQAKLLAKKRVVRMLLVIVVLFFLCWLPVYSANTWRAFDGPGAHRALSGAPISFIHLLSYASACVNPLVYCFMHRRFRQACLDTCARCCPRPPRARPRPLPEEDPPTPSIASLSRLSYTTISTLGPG
# Assay: 125I-CCK-8 receptor binding assay, CCKB (guinea pig cerebral cortex membranes)
# Recorded conditions: Table 1, phenyl pyrazolinone ureas; guinea pig cerebral cortex, 125I-Bolton-Hunter CCK 25 pM; read-out: IC50 CCKB
pIC50: −log10 of the molar value.

Example cases with answers are listed next.
>  <Compound smiles>
Cc1cccc(NC(=O)Nc2c(C)n(C)n(-c3ccccc3)c2=O)c1

>  <Observed result>
5.30

$$$$
>  <Compound smiles>
Cc1c(NC(=O)Nc2ccc(Cl)cc2)c(=O)n(-c2ccccc2)n1C

>  <Observed result>
5.60

$$$$
>  <Compound smiles>
Cc1c(NC(=O)Nc2cccc(Cl)c2)c(=O)n(-c2ccccc2)n1C

>  <Observed result>
< 5.00

$$$$

I have 2 compounds here; please give me pIC50 for each one.
1. Cc1c(NC(=O)Nc2ccc(Br)cc2)c(=O)n(-c2ccccc2)n1C
2. COc1ccc(NC(=O)Nc2c(C)n(C)n(-c3ccccc3)c2=O)cc1

1: 5.15; 2: < 5.00

###

# Experimental system: CCKB receptor (Cavia porcellus)
# Construct: Male guinea pig brain tissues were prepared according to the modified method described by Saita et al; from tissue; host or cells: guinea pig cerebral cortex membranes
# Assay: 125I-CCK-8 receptor binding assay, CCKB (guinea pig cerebral cortex membranes)
# Recorded conditions: Table 3, diphenyl pyrazolyl ureas; guinea pig cerebral cortex, 125I-Bolton-Hunter CCK 25 pM; read-out: IC50 CCKB
Metric: pIC50
One number for each entry, as −log10 of the molar value.

>  <Compound>
COc1cccc(NC(=O)Nc2c(C)n(-c3ccccc3)n(-c3ccccc3)c2=O)c1 [Example 21]

>  <pIC50>
7.46

$$$$

As a next step, examine the compound that follows.
Recorded pIC50 (compound Cc1cccc(NC(=O)Nc2c(C)n(-c3ccccc3)n(-c3ccccc3)c2=O)c1 [Example 22] ): 7.60

###

# Experimental system: CCKB receptor (Cavia porcellus)
# Construct: Male guinea pig brain tissues were prepared according to the modified method described by Saita et al; from tissue; host or cells: guinea pig cerebral cortex membranes
# Assay: 125I-CCK-8 receptor binding assay, CCKB (guinea pig cerebral cortex membranes)
# Recorded conditions: Table 1, phenyl pyrazolinone ureas; guinea pig cerebral cortex, 125I-Bolton-Hunter CCK 25 pM; read-out: IC50 CCKB
Metric: IC50

>  <Compound smiles>
Cc1ccc(NC(=O)Nc2c(C)n(C)n(-c3ccccc3)c2=O)cc1

>  <Observed result>
> 20 µM

$$$$
>  <Compound smiles>
Cc1c(NC(=O)Nc2ccccc2[N+](=O)[O-])c(=O)n(-c2ccccc2)n1C

>  <Observed result>
> 20 µM

$$$$

Recorded IC50 (compound Cc1c(NC(=O)NC2CCCCC2)c(=O)n(-c2ccccc2)n1C ): > 10 µM
